# target of assay: JAK2 JH2 (Homo sapiens, UniProt O60674)
# Construct: Enzyme: JAK2 JH2, His-Avi-Tag, Biotin-Labeled (BPS Bioscience, Cat #79074) 1 nM; His
# Sequence (O60674 545-809 limits assumed): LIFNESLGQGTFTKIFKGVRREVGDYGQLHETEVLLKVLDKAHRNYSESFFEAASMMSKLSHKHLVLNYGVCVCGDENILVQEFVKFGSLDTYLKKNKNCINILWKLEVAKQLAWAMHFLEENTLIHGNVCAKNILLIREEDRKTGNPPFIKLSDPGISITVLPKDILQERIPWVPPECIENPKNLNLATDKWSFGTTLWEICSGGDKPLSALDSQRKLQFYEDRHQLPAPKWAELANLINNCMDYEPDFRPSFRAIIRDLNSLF
# assay details: JAK2 JH2 TR-FRET Assay
# stated conditions: JAK2 JH2 1 nM, Tracer ZE84-0003 10 nM
value kind: EC50

* COCCn1cc(Nc2ncc(C(N)=O)c(Nc3cccc(-c4nc5ccccc5o4)c3OC)n2)cn1 | 10 to 50 nM
* COc1c(Nc2nc(Nc3cnn(CC(C)C)c3)ncc2C(N)=O)cccc1-c1nc2ccccc2o1 | > 100 nM
* COc1c(Nc2nc(Nc3cnn(CCC4CCCCN4C)c3)ncc2C(N)=O)cccc1-c1ncn(C)n1 (stereo not shown) | > 100 nM
* COc1c(Nc2nc(Nc3cnn(C4CCN(C(C)C)CC4)c3)ncc2C(N)=O)cccc1-c1nc2ccccc2o1 | 10 to 50 nM
* COc1c(Nc2nc(Nc3cnn(C4CCNCC4)c3)ncc2C(N)=O)cccc1-c1ncn(C)n1 [Compound 7, 2,2,2-trifluoroacetate] | 10 to 50 nM
* COc1c(Nc2nc(Nc3cnn(CCC(C)C)c3)ncc2C(N)=O)cccc1-c1ncn(C)n1 | 10 to 50 nM
* COc1c(Nc2nc(Nc3cnn(CCN(CC(C)C)CC(C)C)c3)ncc2C(N)=O)cccc1-c1ncn(C)n1 | > 100 nM
